# experimentDescription: Human HepG2 cell viability assay in 384 well format
# Assay type: toxicity, cell-based
# Parameters: dose 125 nL, time 70.5 hour; concentration not given beside the values
# experimentalConditions: HepG2 cells, read-out: Inhibition
The entries below come with measured cytotoxicity at 70.5 h values attached.

compound: Cc1nc(CN2CCC(CNC(=O)Nc3ccccn3)CC2)oc1C
cytotoxicity at 70.5 h [%]: -8.33
--
compound: CN(C)[C@@H]1CN(C(=O)Cc2ccc(F)cc2)[C@@H]2CCCO[C@H]12
cytotoxicity at 70.5 h [%]: 18.3
--
compound: CC(=O)N1CC2(CCN(C(=O)CO)CC2)c2cc(C)ccc21
cytotoxicity at 70.5 h [%]: -4.93
--
compound: CCn1cc(CN2CCCN(C(=O)c3ccccc3C)CC2)cn1
cytotoxicity at 70.5 h [%]: -2.18
--
compound: O=C(CN1CCNC1=O)N1CCc2nnc(-c3ccccc3)n2CC1
cytotoxicity at 70.5 h [%]: -1.95
--
compound: Cc1ccc(CN2CCOC3(CCN(CC4CCOC4)CC3)C2)cc1 (stereo unspecified)
cytotoxicity at 70.5 h [%]: -1.57
--
compound: NS(=O)(=O)CCNC(=O)CCc1cc(Br)cs1
cytotoxicity at 70.5 h [%]: 1.86
--
compound: Cc1cnn(CCCNC(=O)N2CCCCC(N3CCCC3)C2)c1 (stereo unspecified)
cytotoxicity at 70.5 h [%]: -6.01
--
compound: CCCn1ncc(CN2C[C@@H]3CCCN3C[C@@H]2Cc2ccccc2)c1C
cytotoxicity at 70.5 h [%]: -2.55
--
compound: O=C(NCCCn1ccccc1=O)c1cnc(-c2ccsc2)s1
cytotoxicity at 70.5 h [%]: -11.3
--
compound: CN1CCN(C(=O)[C@@H]2CC[C@@H]3[C@@H](CCN3c3ncccn3)O2)CC1
cytotoxicity at 70.5 h [%]: -7.39
